molecular target: InsR-1 (Homo sapiens, UniProt P06213)
Sequence (P06213 28-1382): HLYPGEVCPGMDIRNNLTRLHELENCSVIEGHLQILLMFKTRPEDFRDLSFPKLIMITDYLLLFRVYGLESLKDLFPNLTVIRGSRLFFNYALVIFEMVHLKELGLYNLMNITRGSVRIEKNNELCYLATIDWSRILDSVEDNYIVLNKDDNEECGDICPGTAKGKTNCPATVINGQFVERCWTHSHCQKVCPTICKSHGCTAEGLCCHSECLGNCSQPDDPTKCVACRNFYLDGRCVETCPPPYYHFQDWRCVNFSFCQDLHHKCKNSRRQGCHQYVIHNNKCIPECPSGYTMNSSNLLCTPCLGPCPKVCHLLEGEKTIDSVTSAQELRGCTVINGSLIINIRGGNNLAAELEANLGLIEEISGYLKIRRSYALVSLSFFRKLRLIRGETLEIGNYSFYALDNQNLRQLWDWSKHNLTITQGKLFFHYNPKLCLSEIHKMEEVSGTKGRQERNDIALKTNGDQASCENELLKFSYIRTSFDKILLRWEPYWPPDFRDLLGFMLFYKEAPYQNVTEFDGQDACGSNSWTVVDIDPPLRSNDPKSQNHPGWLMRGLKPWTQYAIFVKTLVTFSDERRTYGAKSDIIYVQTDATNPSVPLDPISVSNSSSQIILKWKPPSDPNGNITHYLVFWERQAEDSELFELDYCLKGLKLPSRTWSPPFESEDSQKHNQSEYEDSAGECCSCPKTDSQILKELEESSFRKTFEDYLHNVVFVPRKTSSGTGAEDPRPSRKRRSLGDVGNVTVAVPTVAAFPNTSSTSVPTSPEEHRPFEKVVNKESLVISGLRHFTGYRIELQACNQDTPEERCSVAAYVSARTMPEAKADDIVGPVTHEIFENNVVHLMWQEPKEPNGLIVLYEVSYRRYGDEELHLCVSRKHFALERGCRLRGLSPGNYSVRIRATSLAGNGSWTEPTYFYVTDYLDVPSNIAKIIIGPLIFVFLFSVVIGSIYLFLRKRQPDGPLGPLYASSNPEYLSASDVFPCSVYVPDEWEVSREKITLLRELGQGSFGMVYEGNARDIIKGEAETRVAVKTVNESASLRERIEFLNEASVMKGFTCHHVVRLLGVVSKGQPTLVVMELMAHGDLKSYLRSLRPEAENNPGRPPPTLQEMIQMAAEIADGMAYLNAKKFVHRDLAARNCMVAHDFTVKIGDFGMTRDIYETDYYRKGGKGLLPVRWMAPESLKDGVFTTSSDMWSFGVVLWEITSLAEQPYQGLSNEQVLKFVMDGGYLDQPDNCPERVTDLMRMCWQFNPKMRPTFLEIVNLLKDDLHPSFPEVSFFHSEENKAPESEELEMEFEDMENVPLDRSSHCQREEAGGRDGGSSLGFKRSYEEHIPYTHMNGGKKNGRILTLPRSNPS
pIC50: −log10 of the molar value.
readout name: pIC50

Task: Record COc1ccc(Nc2ccnc(Nc3ccc(OC)c(OC)c3)n2)cc1OC [Compound 56] : what is its pIC50 with InsR-1 (Homo sapiens, UniProt P06213)?
Result: ≤ 5.00

----------
Target: UniProtKB Q08881
Sequence (Q08881 1-620): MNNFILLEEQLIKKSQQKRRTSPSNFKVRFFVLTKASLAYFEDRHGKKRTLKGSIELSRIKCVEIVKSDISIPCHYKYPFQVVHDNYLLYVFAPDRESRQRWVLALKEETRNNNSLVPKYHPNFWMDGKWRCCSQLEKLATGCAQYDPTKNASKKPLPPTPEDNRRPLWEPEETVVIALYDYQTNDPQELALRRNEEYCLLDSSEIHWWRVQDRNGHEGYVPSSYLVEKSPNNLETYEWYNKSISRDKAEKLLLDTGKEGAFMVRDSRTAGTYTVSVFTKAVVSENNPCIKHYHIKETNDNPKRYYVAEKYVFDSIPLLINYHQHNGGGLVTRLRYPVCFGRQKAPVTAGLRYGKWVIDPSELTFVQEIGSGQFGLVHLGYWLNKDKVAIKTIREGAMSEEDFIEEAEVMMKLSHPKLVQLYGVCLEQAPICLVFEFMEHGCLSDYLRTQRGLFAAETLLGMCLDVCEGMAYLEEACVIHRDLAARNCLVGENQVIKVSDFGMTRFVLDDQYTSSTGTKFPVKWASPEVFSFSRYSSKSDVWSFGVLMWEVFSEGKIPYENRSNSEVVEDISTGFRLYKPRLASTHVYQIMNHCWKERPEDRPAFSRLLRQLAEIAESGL
Exercise: for every item that follows, state its recorded IC50.

Task: Requested read-out: IC50. Entry: COc1cc(Nc2ccnc(Nc3ccc4c(cnn4Cc4ccccc4)c3)n2)cc(OC)c1OC
Result: 1.5 to 5 µM

Task: Requested read-out: IC50. Entry: COc1cc(Nc2nccc(-n3c(N)nc4ccccc43)n2)cc(OC)c1OC
Result: 5 to 10 µM

Task: Requested read-out: IC50. Entry: COc1cc(Nc2ccnc(Nc3ccc(OCc4ccccc4)cc3)n2)cc(OC)c1OC
Result: 5 to 10 µM

Task: Requested read-out: IC50. Entry: COc1ccc(Nc2ccnc(Nc3ccc(OC)c(OC)c3)n2)cc1OC
Result: ≥ 10 µM

Task: Requested read-out: IC50. Entry: COc1cc(Nc2nccc(-n3c(=O)[nH]c4ccccc43)n2)cc(OC)c1OC
Result: ≥ 10 µM

Task: Requested read-out: IC50. Entry: COc1cc(Nc2nccc(Nc3cc(C(C)(C)C)n[nH]3)n2)cc(OC)c1OC
Result: 1.5 to 5 µM

Task: Requested read-out: IC50. Entry: COc1cc(Nc2nccc(-n3c(=O)oc4ccccc43)n2)cc(OC)c1OC
Result: ≥ 10 µM

Task: Requested read-out: IC50. Entry: Clc1cccc(Nc2ccnc(Nc3cccc(Cl)c3)n2)c1
Result: 5 to 10 µM

----------
Exercise: for every item that follows, state its recorded pIC50.
pIC50: −log10 of the molar value.

Task: Record Cc1cccc(Nc2ccnc(Nc3cccc(Br)c3)n2)c1 [Compound 60] : what is its pIC50 with PDGFRB (Homo sapiens)?
Result: 5.30 to 5.82

Task: Record COc1ccc(-c2ccn(-c3ccnc(Nc4cc(OC)c(OC)c(OC)c4)n3)n2)cc1 [Compound 34] : what is its pIC50 with PDGFRB (Homo sapiens)?
Result: ≤ 5.00

Task: Record COc1cc(Nc2nccc(Nc3ccc4c(cnn4Cc4ccccc4)c3)n2)cc(OC)c1OC [Compound 36] : what is its pIC50 with PDGFRB (Homo sapiens)?
Result: > 5.82

Task: Record COc1ccc(Nc2ccnc(Nc3ccc(OC)c(OC)c3)n2)cc1OC [Compound 56] : what is its pIC50 with PDGFRB (Homo sapiens)?
Result: > 5.82

Task: Record COc1cc(Nc2ccnc(Nc3ccc4c(cnn4Cc4ccccc4)c3)n2)cc(OC)c1OC [Compound 37] : what is its pIC50 with PDGFRB (Homo sapiens)?
Result: > 5.82

Task: Record COc1cc(Nc2nccc(-n3c(=O)oc4ccccc43)n2)cc(OC)c1OC [Compound 25] : what is its pIC50 with PDGFRB (Homo sapiens)?
Result: ≤ 5.00

Task: Record COc1cc(Nc2nccc(-n3c(=O)[nH]c4ccccc43)n2)cc(OC)c1OC [Compound 3] : what is its pIC50 with PDGFRB (Homo sapiens)?
Result: > 5.82

Task: Record COc1cc(Nc2nccc(Nc3cc(C(C)(C)C)n[nH]3)n2)cc(OC)c1OC [Compound 35] : what is its pIC50 with PDGFRB (Homo sapiens)?
Result: 5.30 to 5.82

----------
Reported IC50 for target or system Lck-1 (Homo sapiens, UniProt P06239), by entry.

Task: Requested read-out: IC50. Entry: COc1cc(Nc2nccc(Nc3cc(C(C)(C)C)n[nH]3)n2)cc(OC)c1OC [Compound 35]
Result: < 1.5 µM

Task: Requested read-out: IC50. Entry: COc1cc(Nc2nccc(-n3c(=O)oc4ccccc43)n2)cc(OC)c1OC [Compound 25]
Result: ≥ 10 µM

Task: Requested read-out: IC50. Entry: COc1ccc(Nc2ccnc(Nc3ccc(OC)c(OC)c3)n2)cc1OC [Compound 56]
Result: 5 to 10 µM

Task: Requested read-out: IC50. Entry: COc1cc(Nc2ccnc(Nc3ccc(OCc4ccccc4)cc3)n2)cc(OC)c1OC [Compound 58]
Result: 5 to 10 µM

Task: Requested read-out: IC50. Entry: Cc1cccc(Nc2ccnc(Nc3cccc(Br)c3)n2)c1 [Compound 60]
Result: ≥ 10 µM

----------
Exercise: for every item that follows, state its recorded IC50.

Task: Record Cc1cccc(Nc2nccc(Nc3cccc(Br)c3)n2)c1 [Compound 54] : what is its IC50 with ErbB2-1 (Homo sapiens, UniProt P04626)?
Result: ≥ 10 µM

Task: Record COc1ccc(Nc2ccnc(Nc3ccc(OC)c(OC)c3)n2)cc1OC [Compound 56] : what is its IC50 with ErbB2-1 (Homo sapiens, UniProt P04626)?
Result: ≥ 10 µM

----------
pIC50: −log10 of the molar value.
Reported pIC50 for target or system IGFR-1 (Homo sapiens, UniProt P08069), by entry.

Task: Requested read-out: pIC50. Entry: COc1ccc(-c2ccn(-c3ccnc(Nc4cc(OC)c(OC)c(OC)c4)n3)n2)cc1
Result: ≤ 5.00

Task: Requested read-out: pIC50. Entry: COc1ccc(Nc2ccnc(Nc3ccc(OC)c(OC)c3)n2)cc1OC
Result: > 5.82

Task: Requested read-out: pIC50. Entry: COc1cc(Nc2nccc(-n3c(=O)[nH]c4ccccc43)n2)cc(OC)c1OC
Result: > 5.82

Task: Requested read-out: pIC50. Entry: COc1cc(Nc2nccc(Nc3cc(C(C)(C)C)n[nH]3)n2)cc(OC)c1OC
Result: > 5.82

----------
pIC50: −log10 of the molar value.
readout name: pIC50

Task: Record COc1cc(Nc2nccc(-n3ccc4ccccc43)n2)cc(OC)c1OC : what is its pIC50 with Fyn-1 (Homo sapiens, UniProt P06241)?
Result: > 5.82

----------
Exercise: for every item that follows, state its recorded IC50.

Task: Record COc1cc(Nc2nccc(-n3ccc4ccccc43)n2)cc(OC)c1OC [Compound 31] : what is its IC50 with Flt1-1 (Homo sapiens)?
Result: < 1500 nM

Task: Record COc1cc(Nc2nccc(-n3c(=O)[nH]c4ccccc43)n2)cc(OC)c1OC [Compound 3] : what is its IC50 with Flt1-1 (Homo sapiens)?
Result: < 1500 nM

Task: Record COc1ccc(Nc2ccnc(Nc3ccc(OC)c(OC)c3)n2)cc1OC [Compound 56] : what is its IC50 with Flt1-1 (Homo sapiens)?
Result: 1500 to 5000 nM

----------
Reported IC50 for target or system EGFR-1 (Homo sapiens, UniProt P00533), by entry.

Task: Requested read-out: IC50. Entry: COc1cc(Nc2ccnc(-n3ccc4ccccc43)n2)cc(OC)c1OC
Result: ≥ 10 µM

Task: Requested read-out: IC50. Entry: COc1cc(Nc2nccc(-n3ccc4ccccc43)n2)cc(OC)c1OC
Result: ≥ 10 µM

Task: Requested read-out: IC50. Entry: COc1cc(Nc2nccc(-n3c(=O)oc4ccccc43)n2)cc(OC)c1OC
Result: ≥ 10 µM

Task: Requested read-out: IC50. Entry: COc1cc(Nc2ccnc(Nc3ccc(OCc4ccccc4)cc3)n2)cc(OC)c1OC
Result: ≥ 10 µM

Task: Requested read-out: IC50. Entry: COc1ccc(-c2ccn(-c3ccnc(Nc4cc(OC)c(OC)c(OC)c4)n3)n2)cc1
Result: 5 to 10 µM

Task: Requested read-out: IC50. Entry: Clc1cccc(Nc2ccnc(Nc3cccc(Cl)c3)n2)c1
Result: ≥ 10 µM

Task: Requested read-out: IC50. Entry: Cc1cccc(Nc2nccc(Nc3cccc(Br)c3)n2)c1
Result: ≥ 10 µM
